Origin of measurements: patent US20220380319A1

assay: Compound solubility in water
Reported Metric: solubility (µg/mL)

> print(dat)
                                   compound  recorded.value
1  COc1nc2cc(F)c(N3CCN(C4CN(C)C4)CC3)cc2n1C(=O)NCCCc1ccccc1 [Example 319b]              46
2  COc1nc2ccc(N3CCOCC3)cc2n1C(=O)NCCCC1(C(F)(F)F)CC1 [Example 183a]              15
3  COc1nc2ccc(N3CCOCC3)cc2n1C(=O)NCC1CC1Cc1ccccc1 (centres unmarked) [Example 231a]              14
4  CN1CC(N2CCN(c3cccc4c3ncn4C(=O)NCCC3CCC(F)(F)C3)CC2)C1 (centres unmarked)              36

a = CN1CCN(C2CN(c3cccc4c3ncn4C(=O)NCCOc3ccccc3)C2)CC1
b = CC(C)CC1(CNC(=O)n2cnc3c(N4CCOCC4)cccc32)CC1
c = CC(C)CNC(=O)n1cnc2cc(C(F)(F)F)c(-c3cncnc3)cc21 [Example 77b]
d = CN1CCN(c2cccc3c2ncn3C(=O)NCc2ccc3c(c2)OCCO3)CC1
Req: // sort entries: solubility, high to low Reply with the item labels sorted in the order that was asked for.
Resp: a, b, d, c

* * *

biological target: acid ceramidase (Homo sapiens); construct: Cell lysates overexpressing acid ceramidase were used as the enzyme source; expressed in transfected cells; experiment: Acid ceramidase inhibition, biochemical fluorescent assay with cell lysates overexpressing acid ceramidase, substrate Rbm14-12; conditions: substrate Rbm14-12 6.3 μM, pH 4.5
pIC50: −log10 of the molar value.
Reported Metric: pIC50

Use these answered entries as a reference point.
> print(dat)
                                   compound  reported.metric  recorded.value
1  O=C(NCCCc1ccccc1)n1cnc2c(N3CCN(C4COC4)CC3)cccc21            pIC50          > 6.70
2  CC(=O)N1CCN(c2cccc3c2ncn3C(=O)NCC2(CC(C)C)CC2)CC1            pIC50          > 6.70
3  CN1CC2CCC1CN2c1cccc2c1ncn2C(=O)NCCC1CCC(F)(F)C1 (stereo not drawn)            pIC50    6.00 to 6.70

Req: Which measured pIC50 value corresponds to COc1nc2cc(N3CCOCC3)ccc2n1C(=O)NCC1(CC2CC2)CC1 [Example 229b] ?
Resp: > 6.70

Req: Follow-up item: COc1nc2c(N3CCN(C)CC3)cc(C#N)cc2n1C(=O)NCCC(C)C
Resp: > 6.70

Req: Follow-up item: CN1C[C@H]2C[C@@H]1CN2c1cccc2c1ncn2C(=O)NCCCc1ccccc1
Resp: > 6.70

Req: Follow-up item: CNC1CCN(c2cccc3c2ncn3C(=O)NCCCc2ccccc2)C1 (stereo not drawn)
Resp: > 6.70

Req: Follow-up item: CC(C)CCNC(=O)n1cnc2c(N3CCN(C)C(CF)C3)cccc21 (stereo not drawn)
Resp: 6.00 to 6.70

Req: Follow-up item: CC(C)CCNC(=O)n1cnc2c(N3CCO[C@@H](Cc4ccccc4)C3)cccc21
Resp: 6.00 to 6.70

* * *

Quick reference: pIC50 of the listed items.
molecular target: acid ceramidase (Homo sapiens, UniProt Q13510); construct: Cell lysates overexpressing acid ceramidase were used as the enzyme source; expressed in transfected cells; assay: Acid ceramidase inhibition, biochemical fluorescent assay with cell lysates overexpressing acid ceramidase, substrate Rbm14-12; conditions: substrate Rbm14-12 6.3 μM, pH 4.5, 1 hr preincubation at RT
Sequence (Q13510 22-395): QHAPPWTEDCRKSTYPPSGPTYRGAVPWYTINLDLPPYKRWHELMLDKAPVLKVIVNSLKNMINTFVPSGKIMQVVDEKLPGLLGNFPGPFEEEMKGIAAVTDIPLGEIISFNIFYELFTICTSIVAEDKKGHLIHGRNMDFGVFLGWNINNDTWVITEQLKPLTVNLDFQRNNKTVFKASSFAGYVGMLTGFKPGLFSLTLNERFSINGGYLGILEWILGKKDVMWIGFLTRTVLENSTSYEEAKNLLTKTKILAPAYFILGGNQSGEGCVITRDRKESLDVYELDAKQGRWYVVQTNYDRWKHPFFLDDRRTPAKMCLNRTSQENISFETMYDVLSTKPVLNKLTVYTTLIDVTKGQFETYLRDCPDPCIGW
pIC50: −log10 of the molar value.

> print(dat)
                                   molecule  recorded.value
1  CCC(C)CNC(=O)n1c(OC)nc2c(OC)cccc21 (stereo not shown)    6.00 to 6.70

Req: Which measured pIC50 value corresponds to CCCCNC(=O)n1c(OC)nc2ccc(-c3cncnc3)nc21 [Example 85a] ?
Resp: > 6.70

Req: Follow-up item: O=C(NCCc1ccccc1)n1cnc2cc(-c3cccnc3)ccc21 [Example 10a]
Resp: > 6.70

Req: Follow-up item: CCCCNC(=O)n1c(OCC)nc2c(OC)cccc21
Resp: 6.00 to 6.70

Req: Follow-up item: O=C(NCCc1ccccc1)n1cnc2ccc(N3CCOCC3)cc21 [Example 14b]
Resp: > 6.70

Req: Follow-up item: COc1nc2ncccc2n1C(=O)NCCCCc1ccccc1
Resp: > 6.70

Req: Follow-up item: COc1nc2cc(N3CCOCC3)c(F)cc2n1C(=O)NCCOc1ccccc1 [Example 335b]
Resp: > 6.70

Req: Follow-up item: CCCCNC(=O)n1cnc2cc(OC)ccc21 [Example 51a]
Resp: > 6.70
